Measured values drawn from PubChem BioAssay (NCI) for this set.

ASSAY TEXT: NCI Yeast Anticancer Drug Screen. Data for the bub3 strain (AID 167)
CONDITION LABEL: S. cerevisiae bub3 mutant strain, at 50.0 µM (retest, dose inferred, filed as 5.0), active compounds read high
About 79,000 compounds went through this panel and 15% of them were active in at least one assay; those are over-represented in the sample as a whole.
Quick reference: growth inhibition of the listed items.

COMPOUND: CCOC(=O)C(=CCC1NCCc2c1[nH]c1ccccc21)C(=O)OCC (stereo unspecified)
growth inhibition (%): 98

COMPOUND: Cn1c(=NCCc2ccccc2)oc2ccc(Cl)cc21
growth inhibition (%): 33

COMPOUND: COC(=O)N/N=C(\c1ccc(O)cc1)C(C)C1(O)C(=O)Nc2ccccc21 (stereo unspecified)
growth inhibition (%): 34

COMPOUND: C1=Cc2ccccc2/C1=C/c1ccccc1
growth inhibition (%): 95

COMPOUND: CCOC(=O)/N=C(\N)SCc1ccccc1
growth inhibition (%): -7

COMPOUND: CC(C)(C)c1cc2c(c(C(C)(C)C)c1O)CC(=O)O2
growth inhibition (%): 97

COMPOUND: CC(=O)Nc1cc(F)c2c(c1)Cc1ccccc1-2
growth inhibition (%): 83

COMPOUND: CCC(=O)C(CC)(c1ccc(OC(C)=O)cc1)c1ccc(OC(C)=O)cc1
growth inhibition (%): 59

COMPOUND: O=C(/C(=N/O)[n+]1ccccc1)c1ccccc1
growth inhibition (%): 94

COMPOUND: Nc1ccc(-c2nc3ccccc3s2)cc1I
growth inhibition (%): 95

COMPOUND: O=Cc1nc2c3cccnc3ccc2n1Cc1ccccc1
growth inhibition (%): 11

* * *

ASSAY TEXT: NCI Yeast Anticancer Drug Screen. Data for the sgs1 mgt1 strain (AID 161);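 note: 0% = growth of cultures given vehicle only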
CONDITION LABEL: S. cerevisiae sgs1 mgt1 strain, at 50.0 µM (retest, dose inferred, filed as 5.0)
Compounds without any hit were thinned out: in the full panel of roughly 79,000, 15% have a hit. Activity calls are given as the source filed them. Rule as the data show it: active = growth inhibition above about 70%; inactive = the rest.
Outcomes: active, inactive

COMPOUND: CCCC/C=C(\CCCNCCCC)[Si](C)(C)C
CLASS NAME: active
--
COMPOUND: Cc1c(C)c(C)c(C(=O)c2ccccc2C(=O)NCCSC(C)(C)C)c(C)c1C
CLASS NAME: inactive
--
COMPOUND: S=C1NC2=C(CSC/C2=C\c2cccc(Br)c2)C(c2cccc(Br)c2)N1 (centres undefined)
CLASS NAME: active
--
COMPOUND: Oc1ccc(CCCCCc2ccc(O)cc2)cc1
CLASS NAME: active
--
COMPOUND: OC(C/C(CNNc1ccccc1)=N/Nc1ccccc1)(C(F)(F)F)C(F)(F)F
CLASS NAME: inactive
--
COMPOUND: Cc1[nH]nc(-c2cccnc2)c1N=NN1CCOCC1
CLASS NAME: active
--
COMPOUND: CC1CN(C(=S)NNC(C)c2cc3ccccc3cn2)CC(C)O1 (centres undefined)
CLASS NAME: active
--
COMPOUND: c1ccc(-c2c[nH]c(-c3ccccc3)c2-c2ccccc2)cc1
CLASS NAME: active
--
COMPOUND: C(=P(c1ccccc1)(c1ccccc1)c1ccccc1)[P+](c1ccccc1)(c1ccccc1)c1ccccc1
CLASS NAME: active

* * *

ASSAY TEXT: NCI Yeast Anticancer Drug Screen. Data for the rad50 strain (AID 155);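 note: 0% = growth of vehicle-only cultures of the same strain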
CONDITION LABEL: S. cerevisiae rad50 strain growth inhibition; at 50.0 µM; active compounds read high
Method: Growth inhibition of yeast strains with defined genetic alterations is measured as a screen for potential anti-cancer activity. Selected strains with alterations in DNA damage repair or cell cycle control were exposed to compounds and growth inhibition was measured relative to vehicle treated controls. The strain used in this assay is rad50
This is part of a sample that, as a whole, favours compounds with a hit. Of some 79,000 tested, about 15% had one in any assay. Activity calls are given as the source filed them. Rule as the data show it: active = growth inhibition above about 70%; inactive = the rest.
Measured growth inhibition accompanies every entry in the list below.
OBSERVABLE: growth inhibition

COMPOUND: CCOC(=O)C1(C#N)C(=O)CSC1=Nc1ccccc1Cl (centres undefined)
READOUT VALUE: -5.95% (inactive)

COMPOUND: Brc1ccc2[nH]c3ccccc3c2c1
READOUT VALUE: 57.7% (inactive)

COMPOUND: O=C(Nc1cccc(Cl)c1)OCCN(CCOC(=O)Nc1cccc(Cl)c1)C(=O)Nc1cccc(Cl)c1
READOUT VALUE: 77.8% (active)

COMPOUND: OC1c2cc(Cl)cc(Cl)c2OC2(N3CCCC3)CCCCC12 (centres undefined)
READOUT VALUE: 81.5% (active)
